- assayed-system: human Bisphosphoglycerate mutase (hBPGM) (Homo sapiens (Human), UniProt P07738)
- Sequence (P07738 whole entry): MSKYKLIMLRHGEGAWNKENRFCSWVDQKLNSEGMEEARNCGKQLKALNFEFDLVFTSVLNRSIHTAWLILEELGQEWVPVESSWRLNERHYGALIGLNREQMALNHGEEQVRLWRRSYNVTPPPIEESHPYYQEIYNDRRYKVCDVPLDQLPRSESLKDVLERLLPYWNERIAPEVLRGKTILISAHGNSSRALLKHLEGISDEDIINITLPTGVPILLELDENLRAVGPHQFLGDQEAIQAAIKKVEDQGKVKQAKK
- test-description: BPGM Phosphatase Assay
- condition-info: Table 6 additional results; read-out: huBPGM: phosphatase Enzyme EC50
measured-parameter: EC50 (µM)
The answer is to be given in µM; state only the numeric part.

[[record]]
smiles_text = "CC(=O)Nc1nc(C)c(-c2csc(-c3cc(O)c(C(=O)O)cc3F)n2)s1"
assayed_system = "human Bisphosphoglycerate mutase (hBPGM) (Homo sapiens (Human), UniProt P07738)"
measured_parameter = "EC50"
numeric_value = 0.14

[[record]]
smiles_text = "COC(=O)NCc1nc(C)c(-c2csc(-c3cc(C)c(C(=O)O)c(O)c3)n2)s1"
assayed_system = "human Bisphosphoglycerate mutase (hBPGM) (Homo sapiens (Human), UniProt P07738)"
measured_parameter = "EC50"
numeric_value = 0.42

[[record]]
smiles_text = "CC(=O)Nc1cccc(OCc2nc(C)c(-c3csc(-c4cc(O)c(C(=O)O)cc4F)n3)s2)n1"
assayed_system = "human Bisphosphoglycerate mutase (hBPGM) (Homo sapiens (Human), UniProt P07738)"
measured_parameter = "EC50"
numeric_value = 0.05


// next item, EC50 requested
# EC50 of Cc1nc(Cc2ccccc2)sc1-c1cccc(-c2ccc(C(=O)O)c(O)c2)c1 = 0.13
